Target: muscarinic receptors
Assay: Radio ligand binding: displacement of muscarinic agonist 3H-Oxotremorine-M (3H-OXO-M) from rat cerebral cortex membranes
Set-up: species or system Hooded Lister rats
Conditions: 2nM 3H-OXO-M, 2mM magnesium chloride, tris pH 7.7, 37° C., 30 min
property.label: IC50

Here's what some known entries look like.
{"molecule": "COCc1ncc(C23CCCN(CC2)C3)o1 (racemic)", "IC50": "0.22 µM"}
{"molecule": "Nc1ncc(C23CCCN(CC2)C3)o1 (racemic)", "IC50": "0.004 µM"}
{"molecule": "Nc1ncc([C@H]2C[C@@H]3CCN(C3)C2)o1 (relative stereo)", "IC50": "0.56 µM"}
{"molecule": "Nc1ncc(C2CN3CCC2CC3)o1 (racemic) [Example E2]", "IC50": "0.44 µM"}

Required: IC50, one value per molecule below.
1. Nc1ncc(C2CN3CCC2C3)o1 (racemic)
2. Nc1nc(C23CCCN(CC2)C3)co1 (racemic) [Example E1]
3. OCc1ncc(C23CCCN(CC2)C3)o1 (racemic)
4. FCc1ncc(C23CCCN(CC2)C3)o1 (racemic)

RESULT:
1: 0.2 µM; 2: 0.25 µM; 3: 0.206 µM; 4: 0.005 µM

# batch size: 2; output IC50 per entry
1. Nc1ncc(C23CCN(CC2)C3)o1
2. COC(=O)c1ncc(C23CCCN(CC2)C3)o1 (racemic)

RESULT:
["0.018 µM", "2 µM"]

---

Biological target: muscarinic receptors
Format: binding, Hooded Lister rats
Settings: 0.27nM 3H-QNB, rat cerebral cortex, tris pH 7.7, 37° C., 30 min
pIC50: −log10 of the molar value.
Threshold check on pIC50: at or above 5 gives 1.0, strictly below gives 0.0.

{"molecule": "Nc1ncc([C@H]2C[C@@H]3CCN(C3)C2)o1 (relative stereo)", "target.system": "muscarinic receptors", "label.value": 0.0}
{"molecule": "OCc1ncc(C23CCCN(CC2)C3)o1 (racemic)", "target.system": "muscarinic receptors", "label.value": 1.0}

QUERY: Assess whether reported pIC50 for Nc1ncc(C2CN3CCC2CC3)o1 (racemic) [Example E2] sits at 5 or higher.
RESULT: 0.0

---

Biological target: muscarinic receptors
Assay: Radio ligand binding: displacement of muscarinic agonist 3H-Oxotremorine-M (3H-OXO-M) from rat cerebral cortex membranes
Set-up: species or system Hooded Lister rats
Details: 2nM 3H-OXO-M, 2mM magnesium chloride, tris pH 7.7, 37° C., 30 min
property.label: IC50 (nM)
Answers are plain numbers, in nM.

{"molecule": "Nc1nc(C23CCCN(CC2)C3)cs1 (racemic)", "target.system": "muscarinic receptors", "unit.string": "nM", "IC50": 280}
{"molecule": "COCc1ncc(C23CCN(CC2)C3)o1", "target.system": "muscarinic receptors", "unit.string": "nM", "IC50": 1050}

Then this molecule:
For this molecule ( N#Cc1ncc(C23CCCN(CC2)C3)o1 (racemic) ), measured IC50 is 380
